Tested on: horse erythrocytes
experimental-parameters: TRIS buffer pH 7.2, 1 h, 37°C, absorbance 540 nm, relative to melittin 100 μM, ± confidence interval (α = 0.05)
No end group written: not given here.
quantity-name: Percent hemolysis at 375 μM (%)
Give the quantity in %, number only.

KKLFKKILKYL-FKLFKKILKVL-NH2 [BP100-BP13] | 99
KKLFKKILKKL-FKLFKKILKVL-NH2 [BP16-BP13] | 100

So what's the measured Percent hemolysis at 375 μM for this one? VWNQPVRGFKVYEKKLFKKILKKL-NH2 [Pep13-BP16]
4

Another substance: KKLFKKILKKL-RINSAKDDAAGLQIA-OH [BP16-flg15]
1

Another substance: H-YGIHTHKKVVFWVKFK-NH2 [PIP1-KSLW]
6

====

System: horse erythrocytes
experimental-parameters: TRIS buffer pH 7.2, 1 h, 37°C, absorbance 540 nm, relative to melittin 100 μM, ± confidence interval (α = 0.05)
No end group written: not given here.
Percent hemolysis at 250 μM for assorted substances
Give the quantity in %, number only.

// worked examples, Percent hemolysis at 250 μM included
KKLFKKILKKLVWNQPVRGFKVYE [BP16-Pep13] | 1
KKVVFWVKFK-RINSAKDDAAGLQIA-OH [KSLW-flg15] | 8
KKVVFWVKFK-NH2 [KSL-W, reference compound] | 6
RINSAKDDAAGLQIA-KKLFKKILKYL-NH2 [flg15-BP100] | 63
KKLFKKILKYL-FKLFKKILKVL-NH2 [BP100-BP13] | 98

Give horse erythrocytes Percent hemolysis at 250 μM for H-FKLFKKILKVLKKVVFWVKFK-NH2 [BP13-KSLW]
100

Another substance: FKLFKKILKVL-KKLfKKILKYL-NH2 [BP13-BP143]
100

Another substance: H-KKVVFWVKFKFKLFKKILKVL-NH2 [KSLW-BP13]
77

Another substance: Ac-KKLFKKIK(COC3H7)KYL-RINSAKDDAAGLQIA-OH [BP387-flg15]
7

Another substance: VWNQPVRGFKVYEKKLFKKILKKL-NH2 [Pep13-BP16]
4

Another substance: H-YGIHTHKKVVFWVKFK-NH2 [PIP1-KSLW]
6

====

Tested on: Pseudomonas syringae pv. actinidiae Psa3700.1.1
assay-remarks: In vitro growth inhibition (MIC)
Format: cell-based
experimental-parameters: TSB, 25°C, 48 h, OD 600 nm (Bioscreen C), three replicates, experiment repeated twice; MIC given as range
No end group written: not given here.
quantity-name: MIC, Psa

KKLFKKILKYLVWNQPVRGFKVYE [BP100-Pep13] | 0.8 to 1.6 µM
VWNQPVRGFKVYEKKLFKKILKYL-NH2 [Pep13-BP100] | 3.1 to 6.2 µM
KKLFKKILKKL-FKLFKKILKVL-NH2 [BP16-BP13, peptide conjugate, BP16 at N-terminus, BP13 at C-terminus] | 25 to 50 µM
H-FKLFKKILKVLKKVVFWVKFK-NH2 [BP13-KSLW] | 6.2 to 12.5 µM

So what's the measured MIC, Psa for this one? RINSAKDDAAGLQIA-OH [flg15, plant defense elicitor peptide, 15 amino acids of the N-terminal conserved domain of bacterial flagellin; monomer]
> 100 µM

====

Test system: tobacco leaves
assay-remarks: Effect of peptide infiltration on tobacco leaves (phytotoxicity)
Format: in vivo
experimental-parameters: 100 μL infiltrated into mesophyll, lesion diameter 48 h after infiltration, at least three leaves; ± confidence interval (α = 0.05)
Please use rule met for Size of the lesions in infiltrated tobacco leaves at 150 μM under 0.5 cm and rule not met for everything else, ties included.

In plain terms, does FKLFKKILKVL-KKLFKKILKKL-NH2 [BP13-BP16, peptide conjugate, BP13 at N-terminus, BP16 at C-terminus] come in under 0.5 cm for Size of the lesions in infiltrated tobacco leaves at 150 μM?
rule not met

====

Size of the lesions in infiltrated tobacco leaves at 50 μM for assorted substances
Test system: tobacco leaves
assay-remarks: Effect of peptide infiltration on tobacco leaves (phytotoxicity)
Format: in vivo
experimental-parameters: in vivo
No end group written: not given here.
Give the quantity in cm, number only.

// worked examples, Size of the lesions in infiltrated tobacco leaves at 50 μM included
KKLFKKILKKLVWNQPVRGFKVYE [BP16-Pep13] | 0.23
H-KKVVFWVKFKYGIHTH-NH2 [KSLW-PIP1] | 0.17
VWNQPVRGFKVYE-OH [Pep13, pathogen-associated molecular pattern (PAMP) from Phytophthora sojae; plant defense elicitor monomer] | 0
VWNQPVRGFKVYEKKLFKKILKYL-NH2 [Pep13-BP100] | 0.26
KKLFKKILKYLVWNQPVRGFKVYE [BP100-Pep13] | 0.04

So what's the measured Size of the lesions in infiltrated tobacco leaves at 50 μM for this one? H-YGIHTHKKVVFWVKFK-NH2 [PIP1-KSLW]
0

Another substance: YGIHTH-NH2 [PIP1, plant defense elicitor peptide identified through combinatorial chemistry; monomer]
0

Another substance: VWNQPVRGFKVYEKKLFKKILKKL-NH2 [Pep13-BP16]
0.23

====

Test system: horse erythrocytes
experimental-parameters: TRIS buffer pH 7.2, 1 h, 37°C, absorbance 540 nm, relative to melittin 100 μM, ± confidence interval (α = 0.05)
Non-standard residues stand in square brackets, D forms with d. Residues, ends and D or L forms follow the SMILES beside them. *: point of attachment. Butyryl = CCCC(=O)*
Percent hemolysis at 50 μM for assorted molecules
Give the quantity in %, number only.

CCCC(=O)NCCCC[C@H](NC(=O)[C@@H](NC(=O)[C@H](CCCCN)NC(=O)[C@H](CCCCN)NC(=O)[C@H](Cc1ccccc1)NC(=O)[C@H](CC(C)C)NC(=O)[C@H](CCCCN)NC(=O)[C@H](CCCCN)NC(C)=O)[C@@H](C)CC)C(=O)N[C@@H](CCCCN)C(=O)N[C@@H](Cc1ccc(O)cc1)C(=O)N[C@@H](CC(C)C)C(N)=O [BP387, reference compound] (Ac-KKLFKKIK(Butyryl)KYL-NH2) | 4
CCCC(=O)NCCCC[C@H](NC(=O)[C@H](CCCCN)NC(=O)[C@H](CC(C)C)NC(=O)[C@@H](NC(=O)[C@H](CCCCN)NC(=O)[C@H](CCCCN)NC(=O)[C@@H](Cc1ccccc1)NC(=O)[C@H](CC(C)C)NC(=O)[C@H](CCCCN)NC(=O)[C@H](CCCCN)NC(C)=O)[C@@H](C)CC)C(=O)N[C@@H](CC(C)C)C(N)=O [BP475, reference compound] (Ac-KKL[dF]KKILKK(Butyryl)L-NH2) | 0
CC[C@H](C)[C@H](NC(=O)[C@H](CCCCN)NC(=O)[C@H](CCCCN)NC(=O)[C@H](Cc1ccccc1)NC(=O)[C@H](CC(C)C)NC(=O)[C@H](CCCCN)NC(=O)[C@@H](N)CCCCN)C(=O)N[C@@H](CC(C)C)C(=O)N[C@@H](CCCCN)C(=O)N[C@@H](CCCCN)C(=O)N[C@@H](CC(C)C)C(N)=O [BP16, reference compound] | 2

The record that follows has no Percent hemolysis at 50 μM shown yet.
So what's the measured Percent hemolysis at 50 μM for this one? CC[C@H](C)[C@H](NC(=O)[C@H](CCCCN)NC(=O)[C@H](CCCCN)NC(=O)[C@H](Cc1ccccc1)NC(=O)[C@H](CC(C)C)NC(=O)[C@H](CCCCN)NC(=O)[C@@H](N)CCCCN)C(=O)N[C@@H](CC(C)C)C(=O)N[C@@H](CCCCN)C(=O)N[C@@H](Cc1ccc(O)cc1)C(=O)N[C@@H](CC(C)C)C(N)=O [BP100, reference compound]
4

====

MIC, Psa for assorted substances
System: Pseudomonas syringae pv. actinidiae Psa3700.1.1
assay-remarks: In vitro growth inhibition (MIC)
Type: cell-based
experimental-parameters: TSB, 25°C, 48 h, OD 600 nm (Bioscreen C), three replicates, experiment repeated twice; MIC given as range

FKLFKKILKVL-KKLFKKILKKL-NH2 [BP13-BP16, peptide conjugate, BP13 at N-terminus, BP16 at C-terminus] | > 50 µM

Give Pseudomonas syringae pv. actinidiae Psa3700.1.1 MIC, Psa for Ac-KKLfKKILKK(COC3H7)L-RINSAKDDAAGLQIA-OH [BP475-flg15, peptide conjugate, lipopeptide BP475 at N-terminus, flg15 at C-terminus]
3.1 to 6.2 µM

Another substance: H-YGIHTHKKVVFWVKFK-NH2 [PIP1-KSLW]
6.2 to 12.5 µM

Another substance: H-KKVVFWVKFKFKLFKKILKVL-NH2 [KSLW-BP13]
1.6 to 3.1 µM

====

Tested on: Xanthomonas arboricola pv. pruni CFBP5563
assay-remarks: In vitro growth inhibition (MIC)
Type: cell-based
experimental-parameters: TSB, 25°C, 48 h, OD 600 nm (Bioscreen C), three replicates, experiment repeated twice; MIC given as range
No end group written: not given here.
MIC, Xap for assorted substances

// worked examples, MIC, Xap included
H-YGIHTHKKVVFWVKFK-NH2 [PIP1-KSLW] | 3.1 to 6.2 µM
FKLFKKILKVL-KKLFKKILKYL-NH2 [BP13-BP100, peptide conjugate, BP13 at N-terminus, BP100 at C-terminus] | 12.5 to 25 µM

So what's the measured MIC, Xap for this one? H-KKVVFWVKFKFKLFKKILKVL-NH2 [KSLW-BP13]
1.6 to 3.1 µM

Another substance: KKLFKKILKKLVWNQPVRGFKVYE [BP16-Pep13]
0.8 to 1.6 µM
